Just for reference, PubChem BioAssay (Tox21) is where these values come from.

molecular target: Cytochrome P450 2C9 (Homo sapiens); test: Cytochrome P450 Family 2 Subfamily C Member 9 (CYP2C9) small molecule antagonists: luciferase reporter qHTS assay (AID 1671198); conditions: P450-Glo CYP2C9 enzyme assay, luciferin luminescence; series mostly up to 115 µM; note: nearly all actives have a fitted effect of over 50% in size
Inconclusive results are not listed. Activity calls are given as the source filed them. Calls come from the whole dose curve; as a rule, active = well fitted inhibition curve with a large enough effect in the repeat runs; inconclusive = weak or mixed curves; inactive = no such curve, though single readings can be large or run the other way.
Labels: active, inactive

compound	groupLabel
Nc1ccc2c(O)cc(S(=O)(=O)O)cc2c1	active
C=C[Si](OCCOC)(OCCOC)OCCOC	inactive
C=CN1CCCC1=O	inactive
FC(F)(F)C(Cl)Br (stereo not drawn)	inactive
CCCN1C=CN(C)C1	inactive
CCCCCCC(C)O (stereo not drawn)	inactive
c1ccc2c(c1)[nH]c1ccccc12	inactive
CC(C)[N+](C)(CCOC(=O)C1c2ccccc2Oc2ccccc21)C(C)C	inactive

----------
assay: A CellTox Green Cytotoxicity Assay to monitor cytotoxicity in HepG2 cells - 24 hour (AID 1224878); conditions: CellTox Green fluorescence; series mostly up to 76.8 µM; note: nearly all actives have a fitted effect of over 45% in size; for Cytotoxicity: % is set by controls: 0 for no effect and ±100 for the full control effect
Results filed as inconclusive are left out. Active and inactive are the calls of the source. Calls follow the shape of the dose curve; as a rule, active = well fitted activation curve with a large enough effect in the repeat runs; inconclusive = weak or mixed curves; inactive = flat fitted curve, though single readings scatter.
Labels: active, inactive

molecule	groupLabel
CC(=O)[C@H]1CC[C@H]2[C@@H]3CC=C4C[C@@H](O)CC[C@]4(C)[C@H]3CC[C@]12C	inactive
CC(C)(C)c1cccc(C(C)(C)C)c1O	inactive
O=C1OC2(c3ccccc31)c1cc(I)c(O)c(I)c1Oc1c2cc(I)c(O)c1I	active
FC(F)(F)C(Cl)Br (stereo not given)	inactive
CC(=O)O[C@]1(C(C)=O)CC[C@H]2[C@@H]3C=C(C)C4=CC(=O)CC[C@]4(C)[C@H]3CC[C@@]21C	inactive

----------
experiment: A CellTox Green Cytotoxicity Assay to monitor cytotoxicity in HEK293 cells - 8 hour (AID 1224884); conditions: CellTox Green fluorescence; series mostly up to 76.8 µM; note: % is set by controls: 0 for no effect and ±100 for the full control effect; nearly all actives have a fitted effect of over 35% in size
Results filed as inconclusive are left out. Calls of active or inactive are those of the source. The call rests on the fitted dose curve; in most records, active means well fitted activation curve with a large enough effect in the repeat runs; inconclusive means weak or mixed curves; inactive means flat fitted curve, though single readings scatter.

inputSmiles	outcome
C[N+](C)(C)CCO	inactive
C=CC(=O)OCCCC	inactive
Oc1ccc(C(c2ccc(O)cc2)C(Cl)(Cl)Cl)cc1	inactive
O=C(O)c1ccc(O)cc1	inactive
CC(=O)[C@@]1(O)CC[C@H]2[C@@H]3C[C@H](C)C4=CC(=O)C=C[C@]4(C)[C@@]3(F)[C@@H](O)C[C@@]21C	inactive
ClC/C=C/CCl	inactive
C1COCCN1	inactive
Nc1ccc2c(O)cc(S(=O)(=O)O)cc2c1	inactive

----------
assay: qHTS assay to identify small molecule agonists of the estrogen receptor beta (ER-beta) signaling pathway - cell viability counter screen (AID 1259380); settings: ER-beta-bla HEK293T viability, CellTiter-Glo luminescence, 16 h; series mostly up to 92.4 µM; note: nearly all actives have a fitted effect of over 30% in size
Results filed as inconclusive are left out. Active and inactive are the calls of the source. Calls come from the whole dose curve; as a rule, active = well fitted cell-killing curve with a large enough effect in the repeat runs; inconclusive = weak or mixed curves, or effect the other way; inactive = flat fitted curve, though single readings scatter.
Labels: 1 (active), -1 (inactive)

compound	groupLabel
Cc1ccc(/C(=C\CN2CCCC2)c2ccccn2)cc1	-1
Cc1ccc(C(C)(C)C)cc1	-1
C=CN1CCCC1=O	-1
CC(=O)[C@@]1(O)CC[C@H]2[C@@H]3C[C@H](C)C4=CC(=O)C=C[C@]4(C)[C@@]3(F)[C@@H](O)C[C@@]21C	-1
CCCCCCOCCOCCO	-1
COC(=O)c1ccc(C)cc1	-1
CCC/C=C/C=O	-1
CC1(C)NC(=O)N(c2ccc([N+](=O)[O-])c(C(F)(F)F)c2)C1=O	-1
NCCS(=O)(=O)O	-1
COc1ccc(-c2coc3cc(O)cc(O)c3c2=O)cc1	1
CN(C)C	-1
Brc1nc2ccccc2s1	-1
CC1(C)OC(=O)NC1=O	-1
COc1cc([C@H]2Oc3cc([C@H]4Oc5cc(O)cc(O)c5C(=O)[C@@H]4O)ccc3O[C@@H]2CO)ccc1O	-1
O=C(O)CCCCCCCCCCCC(=O)O	-1
C=CCCCCCCCCCC	-1
CC(=O)OC(C)C	-1
Cc1ccc(S(=O)(=O)O)cc1C	-1
CCCCCCCCCCC(CO)CCCCCCCC (centres undefined)	-1
O=C(O)COCCN1CCN(C(c2ccccc2)c2ccc(Cl)cc2)CC1 (centres undefined)	-1
O=Cc1ccccc1C=O	-1
C=CCOC(=O)C(=C)C	-1
Nc1ccc2c(O)cc(S(=O)(=O)O)cc2c1	1
CC1(C)C(C=C(Cl)Cl)C1C(=O)OCc1cccc(Oc2ccccc2)c1 (centres undefined)	-1
c1ccc2ncccc2c1	-1
C=CCNCC=C	-1
CCOC(=O)C(C)Oc1ccc(Oc2cnc3cc(Cl)ccc3n2)cc1 (centres undefined)	-1
CN(C)/N=N/c1nc[nH]c1C(N)=O	-1
O=C(O)c1ccc(O)cc1	-1
[O-]/[N+](=N\O)c1ccccc1	-1
CCCCCCCC/C=C\CCCCCCCC(=O)O	-1
COc1ccc2nc(N)sc2c1	-1
COc1ccc(C(=O)c2ccccc2O)c(O)c1	-1
CCCOCCO	-1
CCCCCCCCCCCCO	-1
COC(=O)CC(=O)OC	-1
CCC(Cc1c(I)cc(I)c(N)c1I)C(=O)O (centres undefined)	1
CCO[Si](CCCNC(N)=O)(OCC)OCC	-1
Nc1cc([N+](=O)[O-])ccc1C(=O)O	-1
C=C[Si](OCCOC)(OCCOC)OCCOC	-1
OC[C@H]1O[C@@H]2O[C@H]3[C@H](O)[C@@H](O)[C@@H](O[C@H]4[C@H](O)[C@@H](O)[C@@H](O[C@H]5[C@H](O)[C@@H](O)[C@@H](O[C@H]6[C@H](O)[C@@H](O)[C@@H](O[C@H]7[C@H](O)[C@@H](O)[C@@H](O[C@H]1[C@H](O)[C@H]2O)O[C@@H]7CO)O[C@@H]6CO)O[C@@H]5CO)O[C@@H]4CO)O[C@@H]3CO	-1
CCCCCC1C(=O)CCC1CC(=O)OC (centres undefined)	-1
IC(I)I	-1
ClC/C=C/CCl	-1
CCCN1C=CN(C)C1	-1
CC(C)(Oc1ccc(Cl)cc1)C(=O)O	-1
Cc1ccc(N)c([N+](=O)[O-])c1	-1
C=C1C[C@H]2[C@@H]3C=C(C)C4=CC(=O)CC[C@]4(C)[C@H]3CC[C@]2(C)[C@@]1(OC(C)=O)C(C)=O	-1
CC(=O)Oc1c(C)c(C)c2c(c1C)CC[C@@](C)(CCC[C@H](C)CCC[C@H](C)CCCC(C)C)O2	-1
c1ccc2c(c1)ccc1cc3c(ccc4ccccc43)cc12	-1
C=C[C@H]1CN2CC[C@H]1C[C@H]2[C@H](O)c1ccnc2ccc(OC)cc12	-1
CCCCCC=O	-1
CC(C)=CCO	-1
CC1(C)O[C@@H]2C[C@H]3[C@@H]4C[C@H](F)C5=CC(=O)C=C[C@]5(C)[C@@]4(F)[C@@H](O)C[C@]3(C)[C@]2(C(=O)CO)O1	-1

----------
biological target: Progesterone receptor (Homo sapiens) (UniProt P06401); assay: qHTS assay to identify small molecule antagonists of the progesterone receptor (PR) signaling pathway (AID 1346795); conditions: PR-UAS-bla HEK293T, beta-lactamase FRET ratio, 16 h; series mostly up to 92.4 µM
Sequence (P06401 whole entry, looked up): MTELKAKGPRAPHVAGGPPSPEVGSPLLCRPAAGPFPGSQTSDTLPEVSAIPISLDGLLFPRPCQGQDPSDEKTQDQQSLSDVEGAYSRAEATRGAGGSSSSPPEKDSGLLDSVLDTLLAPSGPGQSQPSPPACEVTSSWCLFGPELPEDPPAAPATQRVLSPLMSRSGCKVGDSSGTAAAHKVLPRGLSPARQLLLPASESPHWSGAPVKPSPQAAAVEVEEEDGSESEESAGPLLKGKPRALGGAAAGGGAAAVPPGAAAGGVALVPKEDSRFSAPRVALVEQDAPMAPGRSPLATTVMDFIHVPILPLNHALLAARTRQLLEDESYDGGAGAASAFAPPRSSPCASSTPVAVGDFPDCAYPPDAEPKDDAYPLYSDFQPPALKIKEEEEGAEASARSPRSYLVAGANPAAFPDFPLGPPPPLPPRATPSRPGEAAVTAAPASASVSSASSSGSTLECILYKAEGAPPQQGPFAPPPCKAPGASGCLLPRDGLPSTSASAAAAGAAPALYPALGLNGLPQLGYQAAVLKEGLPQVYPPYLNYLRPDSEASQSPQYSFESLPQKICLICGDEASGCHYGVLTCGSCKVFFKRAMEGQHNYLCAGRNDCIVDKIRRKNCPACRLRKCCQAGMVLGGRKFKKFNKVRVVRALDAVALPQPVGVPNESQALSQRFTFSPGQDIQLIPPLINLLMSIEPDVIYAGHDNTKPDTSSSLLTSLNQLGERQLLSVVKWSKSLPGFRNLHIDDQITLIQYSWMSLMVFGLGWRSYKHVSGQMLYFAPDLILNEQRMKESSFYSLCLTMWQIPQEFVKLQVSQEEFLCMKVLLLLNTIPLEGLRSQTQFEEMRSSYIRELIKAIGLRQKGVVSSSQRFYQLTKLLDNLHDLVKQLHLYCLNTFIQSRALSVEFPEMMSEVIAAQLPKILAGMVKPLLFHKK
Records with an inconclusive call do not appear. Activity calls are given as the source filed them. Calls come from the whole dose curve; as a rule, active = well fitted inhibition curve with a large enough effect in the signal ratio in the repeat runs (not every such curve was filed as active); inconclusive = weak or mixed curves; inactive = flat fitted curve, though single readings scatter; the % refers to the signal ratio.
Labels: true (1) = active, false (0) = inactive

inputSmiles	groupLabel
CCCCCCCCCCCCCO	false (0)
CCC/C=C/C=O	false (0)
CC(=O)[C@@]1(O)CC[C@H]2[C@@H]3C[C@H](C)C4=CC(=O)C=C[C@]4(C)[C@@]3(F)[C@@H](O)C[C@@]21C	false (0)
Nc1ccc(O)c(N)c1	false (0)
CCCCCCCCCCCCO	false (0)
CC(C)[C@@H]1CC[C@@H](C)CC1=O	false (0)
C=CCOC(=O)C(=C)C	false (0)
CC(C)(Oc1ccc(Cl)cc1)C(=O)O	false (0)
c1ccc2ncccc2c1	false (0)
Nc1cc([N+](=O)[O-])ccc1C(=O)O	false (0)
O=C(O)CCCCCCCCCCCC(=O)O	false (0)
c1ccc2c(c1)[nH]c1ccccc12	true (1)
COC(=O)c1ccc(C)cc1	false (0)
C1CN(SSN2CCOCC2)CCO1	false (0)
Cc1ccc([N+](=O)[O-])c(C)c1	false (0)
CCCCCC=O	false (0)

----------
target: Estrogen receptor (Homo sapiens); test: qHTS assay to identify small molecule antagonists of the estrogen receptor alpha (ER-alpha) signaling pathway (AID 743069); settings: HEK293 ER-alpha-UAS-bla, beta-lactamase ratio, antagonist mode; series mostly up to 69.4 µM; note: % is set by controls: 0 for no effect and ±100 for the full control effect
Records with an inconclusive call do not appear. Activity calls are given as the source filed them. The call rests on the fitted dose curve; in most records, active means well fitted curve in the direction sought with a large enough effect in the signal ratio in the repeat runs (not every such curve was filed as active); inconclusive means weak or mixed curves, or effect the other way; inactive means no such curve, though single readings can be large or run the other way; the % refers to the signal ratio.

inputSmiles	outcome
Cc1ccc(S(=O)(=O)O)cc1C	inactive
COc1ccc2nc(N)sc2c1	inactive
OC[C@@H](O)[C@@H](O[C@@H]1O[C@H](CO)[C@H](O)[C@H](O)[C@H]1O)[C@H](O)[C@@H](O)CO	inactive
NCCS(=O)(=O)O	inactive
NCCOCCO	inactive
COC(=O)c1ccc(C)cc1	inactive
ClC/C=C/CCl	inactive
